test: AUC in rat at 30 mg/kg; type: ADME, organism-based; conditions: in vivo
Measurement Type: AUC (µg·h/mL)
Number only, in µg·h/mL; omit the unit.

Returns the measured AUC for the input compound. Input: `Cc1nc2cc(-n3ncc(C(=O)c4cc5ccccc5[nH]4)c3N)ccc2[nH]1`
102

----------
assay: Antiproliferative activity against human SNU16 cells incubated for 4 days by CCK8 assay; format: functional, cell-based; conditions: SNU-16, 96 h
Measurement Type: pIC50
Lab note — pIC50 values are minus log10 of concentrations in M.

Below, 3 molecules whose answers are already recorded.
Cc1nc2cc(-n3ncc(C(=O)c4cc5ccc(CN6CCOCC6)cc5[nH]4)c3N)ccc2[nH]1 :: 8.59
Cc1cccc(C(=O)c2cnn(-c3cc(O)ccc3Cl)c2N)c1 :: 4.82
Nc1c(C(=O)c2cc3ccccc3[nH]2)cnn1-c1ccc2nc[nH]c2c1 :: 6.42

Returns the measured pIC50 for the input molecule. Input: `Nc1c(C(=O)c2cc3ccccc3[nH]2)cnn1-c1cc(O)ccc1Cl`
6.44

Returns the measured pIC50 for the input molecule. Input: `Cc1nc2cc(-n3ncc(C(=O)c4cc5ccc(Br)cc5[nH]4)c3N)ccc2[nH]1`
7.28

Returns the measured pIC50 for the input molecule. Input: `Cc1nc2ccc(-n3ncc(C(=O)c4cc5ccccc5[nH]4)c3N)cc2[nH]1`
7.77

Returns the measured pIC50 for the input molecule. Input: `Nc1c(C(=O)c2cc3cc(CN4CCOCC4)ccc3[nH]2)cnn1-c1cc(O)ccc1Cl`
6.26

Returns the measured pIC50 for the input molecule. Input: `Cc1nc2ccc(-n3ncc(C(=O)c4cc5cc(CN6CCOCC6)ccc5[nH]4)c3N)cc2[nH]1`
7.77

Returns the measured pIC50 for the input molecule. Input: `Nc1c(C(=O)c2cc3ccccc3[nH]2)cnn1-c1ccc2[nH]ccc2c1`
6.72
